// provenance: patent US20120135912A1

Target: T1, human VLA4-Fc (alpha4-Fc/beta1-Fc heterodimer) (human)
T1 construct: Soluble heterodimer from CHO cells, Protein A purified; also called VLA-Fc
T1 sequence (chain, as listed by the source limits assumed, form in doubt, chain 1 of 2): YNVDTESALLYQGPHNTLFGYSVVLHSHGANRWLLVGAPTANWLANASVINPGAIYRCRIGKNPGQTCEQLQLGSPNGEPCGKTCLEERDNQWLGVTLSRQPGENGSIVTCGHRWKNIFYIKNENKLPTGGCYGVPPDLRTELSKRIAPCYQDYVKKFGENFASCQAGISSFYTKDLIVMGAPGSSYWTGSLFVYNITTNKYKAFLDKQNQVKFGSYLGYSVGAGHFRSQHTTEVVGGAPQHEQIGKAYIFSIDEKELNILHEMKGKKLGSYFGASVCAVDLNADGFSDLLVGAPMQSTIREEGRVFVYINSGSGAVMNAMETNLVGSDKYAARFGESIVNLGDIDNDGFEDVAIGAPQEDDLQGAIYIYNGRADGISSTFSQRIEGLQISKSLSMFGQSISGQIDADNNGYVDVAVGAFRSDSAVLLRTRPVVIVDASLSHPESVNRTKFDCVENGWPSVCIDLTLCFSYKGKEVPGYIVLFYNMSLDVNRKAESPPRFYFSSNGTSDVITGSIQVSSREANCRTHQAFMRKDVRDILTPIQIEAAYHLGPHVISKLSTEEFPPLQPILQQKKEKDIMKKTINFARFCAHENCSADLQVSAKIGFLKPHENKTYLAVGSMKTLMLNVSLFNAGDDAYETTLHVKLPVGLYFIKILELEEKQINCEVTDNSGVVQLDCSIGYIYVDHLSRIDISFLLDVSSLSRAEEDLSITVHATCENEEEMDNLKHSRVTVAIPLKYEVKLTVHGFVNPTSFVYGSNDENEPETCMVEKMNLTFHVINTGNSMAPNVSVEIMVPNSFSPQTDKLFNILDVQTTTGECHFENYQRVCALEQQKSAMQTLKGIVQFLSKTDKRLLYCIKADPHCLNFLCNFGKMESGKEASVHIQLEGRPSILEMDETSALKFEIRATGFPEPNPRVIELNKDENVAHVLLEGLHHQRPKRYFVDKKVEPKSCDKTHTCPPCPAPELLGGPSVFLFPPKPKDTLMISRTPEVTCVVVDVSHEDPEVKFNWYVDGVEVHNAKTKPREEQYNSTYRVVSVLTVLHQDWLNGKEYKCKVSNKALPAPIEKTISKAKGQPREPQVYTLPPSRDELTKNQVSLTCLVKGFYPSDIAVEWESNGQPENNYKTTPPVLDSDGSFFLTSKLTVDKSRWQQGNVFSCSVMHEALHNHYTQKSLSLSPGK
T1 sequence (chain, as listed by the source limits assumed, form in doubt, chain 2 of 2): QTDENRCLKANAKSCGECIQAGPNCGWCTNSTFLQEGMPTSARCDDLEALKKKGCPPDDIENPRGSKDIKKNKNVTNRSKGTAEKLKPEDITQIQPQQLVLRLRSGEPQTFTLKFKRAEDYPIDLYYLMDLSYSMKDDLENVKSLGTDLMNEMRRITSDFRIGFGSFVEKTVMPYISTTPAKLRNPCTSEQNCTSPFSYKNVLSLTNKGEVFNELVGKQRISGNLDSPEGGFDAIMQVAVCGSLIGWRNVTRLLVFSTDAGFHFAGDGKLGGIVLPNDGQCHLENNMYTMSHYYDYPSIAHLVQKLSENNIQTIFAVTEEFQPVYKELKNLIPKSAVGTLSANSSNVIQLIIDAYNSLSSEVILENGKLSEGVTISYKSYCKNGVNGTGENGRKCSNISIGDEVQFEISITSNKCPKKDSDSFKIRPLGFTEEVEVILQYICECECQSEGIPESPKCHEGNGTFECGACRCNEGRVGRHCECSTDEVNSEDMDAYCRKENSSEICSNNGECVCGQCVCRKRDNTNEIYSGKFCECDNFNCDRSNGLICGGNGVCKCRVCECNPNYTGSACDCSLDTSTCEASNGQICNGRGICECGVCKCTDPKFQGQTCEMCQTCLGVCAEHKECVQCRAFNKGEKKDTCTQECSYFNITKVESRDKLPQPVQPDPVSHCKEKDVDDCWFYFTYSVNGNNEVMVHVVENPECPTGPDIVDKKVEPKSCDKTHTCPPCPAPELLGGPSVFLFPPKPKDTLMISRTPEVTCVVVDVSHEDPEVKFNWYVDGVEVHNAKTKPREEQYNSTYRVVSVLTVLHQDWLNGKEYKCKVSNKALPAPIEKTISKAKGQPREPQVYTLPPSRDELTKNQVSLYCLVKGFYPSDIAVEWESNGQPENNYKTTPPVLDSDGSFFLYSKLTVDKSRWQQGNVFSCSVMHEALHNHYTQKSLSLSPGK
Experiment: ELISA, VLA4-Fc coated, 1 mM MnCl2; from EC50 values
READOUT LABEL: fold-improvement in binding relative to Q38L-2D-VCAM-1
Don't forget the unit after the value.

2D-VCAM-1 variant Clone 151 (ligand, not shown: His tag) FKIETTPESRYLAQIGDSVSLTCSTTGCESPSFYWRPQLDAPLNGKVTNEGTTSTLTMNPVSFGNEHSYLCTAACESRRLEKGIQVEIYSFPKDPEIHLSGPLEAGKPITVKCSVADVYPFDRLEIDLLKGDHLMKSQEFLEDADRKSLETKSLEVTFTPVIEDIGKVLVCRAKLHIDEMDSVPTVRQAVKELQVYISP
2 fold

// for each binder in input: emit fold-improvement in binding relative to Q38L-2D-VCAM-1
1. 2D-VCAM-1 variant Clone 59 (ligand, also called Clone 059; not shown: His tag) FKIETTPESRYLAQIGDSVSLTCSTTGCESPFFSWRPLLDSPLNGKVTNEGTTSTLTMNPVSFGNEHSYLCTATCESRKLEKGIQVEIYSFPKDPEIHLSGPLEAGKPITVKCSVADVYPFDRLEIDLLKGDHLMKSQEFFEDAAWKSLETKSLEVTFTPVIEDIGKVLVCRAKLHIDEMDSVPTVRQAVKELQVYISP
2. 2D-VCAM-1 variant Clone 150 (ligand, not shown: His tag of the E. coli construct) FKIETTPESRYLAQIGDSVSLTCSTTGCESPLFFWRPQLDAPLNGKVTNEGTTSTLTMNPVSFGNEHSYLCTARCESRSLEKGIQVEIYSFPKDPEIHLSGPLEAGKPITVKCSVADVYPFDRLEIDLLKGDHLMKSQEFLEDADRKSLETKSLEVTFTPVIEDIGKVLVCRAKLHIDEMDSVPTVRQAVKELQVYISP

34 fold
4 fold
